# experiment.description: in vitro
# assay.conditions: human, hela cells, % viability
Field: viability at 28.5 h, 10 µM. Provide a value for each of the compounds that follow.
Give bare numbers, in %.

Cc1onc(-c2ccccc2)c1CNC(=O)c1cscn1 ... 97.1
O=C(O)/C=C\C(=O)N(C1CCCCC1)C1CCCCC1 ... 92
O=C(CN1CCCCCC1)N/N=C/c1ccc(F)c(Br)c1 ... 94.7

State recorded viability at 28.5 h, 10 µM for all listed compounds.
1. CC1CCC(C(=O)NC(Cc2ccccc2)C(=O)O)CC1 (centres unmarked)
2. CC(=O)N[C@H]1CC[C@]2(C)CCC([C@H](C)C(=O)N(C)Cc3ccccc3)[C@H](O)[C@H]2[C@@H]1C (some centres unmarked)
3. COc1ccnc(N2CCN(Cc3cncn3C3CCCCC3)CC2)n1
4. COc1ccccc1CN(C(=O)Nc1ccccc1Cl)C1CC1
5. O=C(NCCc1cccs1)Nc1ccccc1OC(F)(F)F
6. O=C1NC(=O)C(CC(=O)N2CCC3(CCN(Cc4ccccc4)C3)C2)N1 (centres unmarked)
7. CSc1nnc(NS(=O)(=O)c2ccccc2C)s1
8. COCCn1c(CO)nnc1[C@H]1C[C@@H](NC(=O)c2ncc(F)cc2F)C1

Return:
1: 90.5; 2: 110; 3: 98.1; 4: 97.2; 5: 98; 6: 88.8; 7: 97.4; 8: 106

State recorded viability at 28.5 h, 10 µM for all listed compounds.
1. Cc1nn(CCNC(=O)C2CC3C=CC2C32CC2)c(C)c1Cl (centres unmarked)
2. Cc1nn(CC(=O)N2CCC(C)CC2)c(=O)c2cc3sccc3n12

Return:
1. 90.8
2. 80

State recorded viability at 28.5 h, 10 µM for all listed compounds.
1. Cc1cccc(=O)n1CCCn1cc(-c2ncc[nH]2)nn1
2. Nc1ncc(-c2ccco2)nc1NC1CCOCC1
3. O=C(/C=C/c1cccnc1)NCc1ccc(OC2CCNCC2)cc1 [CBK038945T]

Return:
90.7
102
88.7

State recorded viability at 28.5 h, 10 µM for all listed compounds.
1. CCOc1ccc(CSC2=NCCN2)cc1Cl [CBK027449C]
2. COc1cc(/C=C(/C#N)c2ccc(C(=O)O)cc2)c([N+](=O)[O-])cc1OCc1ccccc1
3. O=C(COc1ccc(S(=O)(=O)NC2CCCCC2)cc1)Nc1cccc2ccccc12
4. C[C@H](Nc1cncc(-c2cccc3ccccc23)n1)c1ccccc1

Return:
[92.4, 92, 100, 93.6]

---

# experiment.description: in vitro
# assay.conditions: human, hela cells, % viability
Field: viability at 28.5 h, 10 µM. Provide a value for each of the molecules that follow.
Answer with the figure and its unit, nothing else.

O=C(c1csnn1)N1CCc2ccccc21 [CBK200408] ... 86%
CCCn1c(NCc2cccc(OC)c2O)nc2ccccc21 [CBK133763] ... 96.4%
OCc1ccc(CN2C[C@H](O)C[C@H]2c2nc(-c3ccc(F)cc3)no2)o1 [CBK288848] ... 106%
CC1=NN(c2ccc(S(N)(=O)=O)cc2)C(=O)/C1=C\c1ccc(-c2ccc(Cl)c([N+](=O)[O-])c2)o1 [CBK263612] ... 98.8%
Cc1cc(C)n(C(C)CC(=O)N2CCCCC2CCN2CCCC2)n1 (centres unmarked) [CBK282078] ... 106%
Cc1ccn2c(=O)cc(COC(=O)c3sc4nc(C)cc(C)c4c3N)nc2c1 [CBK297783] ... 93.3%

State recorded viability at 28.5 h, 10 µM for all listed molecules.
1. Cc1ccc(S(=O)(=O)n2ccc3ccc(N4CCN(C)CC4)nc32)cc1 [CBK063327]
2. Cc1sc(-c2cnccn2)nc1O [CBK067738]
3. O=C(O)c1cccc(NS(=O)(=O)c2ccc(OC(F)(F)F)cc2)c1 [CBK155077]
4. O=C(O)CC(C(=O)Nc1ccccc1)C1CCCO1 (centres unmarked) [CBK286809]
5. OC1CCC(Nc2nc(-c3ccccc3)cn3ccnc23)CC1 (centres unmarked) [CBK037329]
6. Cn1cc(N2CCN(C(=O)CCOc3ccccc3)CC2)cn1 [CBK305473]

Return:
1. 84%
2. 97.3%
3. 92.7%
4. 93%
5. 98.5%
6. 102%

State recorded viability at 28.5 h, 10 µM for all listed molecules.
1. Cc1cccc(S(=O)(=O)Nc2cc(OCCN3CCOCC3)c3occc3c2)c1 [CBK067420C]
2. COC(=O)c1c(NC(=O)C(=O)NCc2ccccn2)sc2c1CCC2 [CBK269431]
3. CN1CCCc2ccc(S(=O)(=O)Nc3nc4ncccn4n3)cc21 [CBK305226]
4. C[C@@H]1CN(C(=O)c2cc3c(C(=O)OC(C)(C)C)ncn3c3ccc(Cl)cc23)C[C@H](C)N1 [CBK016744]
5. CN1CCN(S(=O)(=O)c2ccc(NC(=O)c3cc(-c4cccnc4)nc4ccc(Cl)cc34)cc2)CC1 [CBK267734]
6. Cc1ccccc1OCC(=O)NN1CCN(C)CC1 [CBK265783C]

Return:
["90.4%", "94.6%", "85.7%", "115%", "94.2%", "89%"]

State recorded viability at 28.5 h, 10 µM for all listed molecules.
1. O=C(c1cc[nH]n1)N1CCC2(CC1)Nc1ccccc1-n1cccc12 [CBK283652]
2. O=[N+]([O-])c1ccc(NC(=S)NCCCn2ccnc2)cc1 [CBK264915]

Return:
1. 96.1%
2. 93.3%

---

# experiment.description: in vitro
# assay.conditions: human, hela cells, % viability
measured.attribute: viability at 28.5 h, 10 µM (%)
Give bare numbers, in %.

Answered cases to consult:
Cc1cccc(C(N)=O)c1O ... 112
Cc1ccc(NC(=O)c2cnc3ccccc3c2)c(C)n1 ... 99.1
CCc1ccc(-c2ccc(C(=O)OC)cn2)cc1 ... 95.2

State recorded viability at 28.5 h, 10 µM for all listed molecules.
1. COC(=O)c1c(C)c(C(C)=O)n(C)c1C
2. COc1ccc(CCNc2ccccc2[N+](=O)[O-])cc1OC

Return:
1. 117
2. 104

State recorded viability at 28.5 h, 10 µM for all listed molecules.
1. O=S(=O)(Nc1ccc(-c2nnn[nH]2)cc1)c1ccc(F)c(C(F)(F)F)c1
2. Cc1nnc2nc(-c3ccc(Cl)cc3Cl)[nH]n12
3. Cc1cc2c(cc1S(=O)(=O)NCCOc1cccc(C(=O)O)c1)OCC(=O)N2
4. O=C(O)CC(Cc1ccc(Br)cc1)C(=O)Nc1ccccc1 (centres unmarked)
5. COC1=CC2CCNC(CCCCC3NCCc4cc(OC)c(OC)cc43)C2C=C1OC (centres unmarked)
6. COc1ccc(S(=O)(=O)N(C)CC(=O)O)cc1
7. COc1ccc2cc(C(=O)N3CCn4cncc4C3)n(C)c2c1
8. CCC12CN3CC(CC)(CN(C1)C3c1ccc([N+](=O)[O-])cc1)C2=O (centres unmarked)

Return:
[96.9, 88.1, 88.3, 96.2, 87, 85.9, 98.6, 108]

---

# experiment.description: in vitro
# assay.conditions: human, hela cells, % viability
measured.attribute: viability at 28.5 h, 10 µM (%)
Give bare numbers, in %.

Answered cases to consult:
COc1cccc(Oc2cnc(-c3ccc(C(=O)N(C)C)cc3)c(N)n2)c1 ... 95.5
C#CCNC(=O)[C@@H]1Cc2cn(Cc3nccn3C)c3cccc(c23)[C@H](CC(C)C)N1 ... 108

State recorded viability at 28.5 h, 10 µM for all listed molecules.
1. O=C(c1ccco1)N1CCC[C@H]1[C@H](O)c1nc2ccccc2s1
2. O=C(c1ccccc1)N1CCC(c2cc3ncccc3[nH]2)CC1
3. CCCn1cc(CN2CCC(O)(c3ccc(C)cc3)CC2)cn1

Return:
99
89.4
103

---

# experiment.description: in vitro
# assay.conditions: human, hela cells, % viability
measured.attribute: viability at 28.5 h, 10 µM (%)
Give bare numbers, in %.

COc1ccc(CN(C)c2c(C)nc3c(OCC(=O)N4CCOCC4)cccn23)cc1 ... 102
Nc1ccc(-c2nc3cc(C(=O)c4ccc5[nH]c(-c6ccc(N)cc6)nc5c4)ccc3[nH]2)cc1 ... 99.7
Cc1cc(C(=O)NCc2ccccc2)n[nH]1 ... 95.7
CCCc1cc(C(=O)NC2CCN(Cc3cccc(F)c3)CC2)[nH]n1 ... 100

Moving on to the next molecule.
Enquiry: Give me measured viability at 28.5 h, 10 µM, please, for this molecule: CC(C)C(=O)Nc1ccc(-c2csc(N3CCN(C)CC3)n2)cc1 [CBK304317C]
Return: 93.5

---

Field: viability at 28.5 h, 10 µM. Provide a value for each of the compounds that follow.
# experiment.description: in vitro
# assay.conditions: human, hela cells, % viability
Answers are plain numbers, in %.

CCN(CCO)c1ccc(Nc2cc(-c3ccc(C#N)cc3)ncn2)cc1 ... 87.9
CCCc1[nH]nc(O)c1Cc1ccc(C(C)(C)C)cc1 ... 79.5
O=C(O)Cn1c2ccc(Cl)cc2c2nc3ccccc3nc21 ... 97.8

State recorded viability at 28.5 h, 10 µM for all listed compounds.
1. Cc1ccc(CNC(=O)Cn2nnc(-c3ccc(CN4CC(C)OC(C)C4)cc3)n2)cc1 (stereo not shown) [CBK144554C]
2. COc1ccc(-c2nc(Nc3cccc(C(F)(F)F)c3)sc2CC(=O)O)cc1OC
3. CCCC/C=C/c1ccc(Nc2ccc3c(c2)OCCO3)nc1
4. COc1ccc([C@@]23CC[C@@H](NC(=O)CNc4ccc(Cl)c(Cl)c4)C[C@@H]2N(C)CC3)cc1OC
5. O=C(Nc1ccc(N2CCNCC2)nc1)C1(c2ccccc2)CCCCC1 [CBK028269T]
6. O=C(NC[C@H]1O[C@@H](CC(=O)N2CCCC2)[C@H](O)[C@@H]1O)c1ccc(F)c(Cl)c1
7. Cn1c(COc2ccccc2)nnc1SCc1nnc(-c2ccccc2)o1
8. Cc1ccc(CN2CCCN(C(=O)CCn3cnc4c(cnn4C)c3=O)CC2)cc1

Return:
1: 64.2; 2: 97.9; 3: 93.3; 4: 94.4; 5: 97.8; 6: 90.9; 7: 94.1; 8: 79.8

The origin of these recorded values is paper PMC12040169.
